Data origin: patent EP2245064B1

- assayedTarget: antibody used for epitope mapping in Example 5 (not named)
- experimentSummary: HTRF competition vs biotinylated human IL-4Rα/Fc for Eu-cryptate antibody
assayReadout: IC50 (nM)
Give your result in nM as a bare value.

Below are worked cases with known answers.
Ask: Using the record for EM25 (receptor) MKVLQEPTCVSDYMSISTCEWKMNGPTNCSTELRLLYQLVFLLSENLTCIPENNGGAGCVCHLLMDDVVSADNYTLDLWAGQQLLWKGSFKPSEHVKPRAPGNLTVHTNVSDTLLLTWSNPYPPDNYLYNHLTYAVNIWSENDPADFRIYNVTYLEPSLRIAASTLKSGISYRARVRAWAQCYNTTWSEWSPSTKWHNSYREPFNPAFLYKVVGAADYKDDDDKAAHHHHHHHHHH , report its IC50.
Result: 0.448

Ask: Using the record for EM24 (receptor) MKVLQEPTCVSDYMSISTCEWKMNGPTNCSTELRLLYQLVFFEFSEAHTCIPENNGGAGCVCHLLMDDVVSADNYTLDLWAGQQLLWKGSFKPSEHVKPRAPGNLTVHTNVSDTLLLTWSNPYPPDNYLYNHLTYAVNIWSENDPADFRIYNVTYLEPSLRIAASTLKSGISYRARVRAWAQCYNTTWSEWSPSTKWHNSYREPFNPAFLYKVVGAADYKDDDDKAAHHHHHHHHHH , report its IC50.
Result: 13

Ask: Using the record for EM20 (receptor) MKVLQEPTCVSDYMSISTCEWKMNGPTNCSTELRLLYQLMFFFSENLTCIPENNGGAGCVCHLLMDDVVSADNYTLDLWAGQQLLWKGSFKPSEHVKPRAPGNLTVHTNVSDTLLLTWSNPYPPDNYLYNHLTYAVNIWSENDPADFRIYNVTYLEPSLRIAASTLKSGISYRARVRAWAQCYNTTWSEWSPSTKWHNSYREPFNPAFLYKVVGAADYKDDDDKAAHHHHHHHHHH , report its IC50.
Result: 3.8

Ask: Using the record for MoLoop1HuIL-4Rα (receptor) MKVLQEPTCVSDYIRTSTCEWKMNGPTNCSTELRLLYQLVFLLSEAHTCIPENNGGAGCVCHLLMDDVVSADNYTLDLWAGQQLLWKGSFKPSEHVKPRAPGNLTVHTNVSDTLLLTWSNPYPPDNYLYNHLTYAVNIWSENDPADFRIYNVTYLEPSLRIAASTLKSGISYRARVRAWAQCYNTTWSEWSPSTKWHNSYREPFNPAFLYKVVGAADYKDDDDKAAHHHHHHHHHH , report its IC50.
Result: 1.9

Next item in the queue.
Ask: Using the record for EM22 (receptor) MKVLQEPTCVSDYMSISTCEWKMNGPTNCSTELRLLYQLMFFEFSEALTCIPENNGGAGCVCHLLMDDVVSADNYTLDLWAGQQLLWKGSFKPSEHVKPRAPGNLTVHTNVSDTLLLTWSNPYPPDNYLYNHLTYAVNIWSENDPADFRIYNVTYLEPSLRIAASTLKSGISYRARVRAWAQCYNTTWSEWSPSTKWHNSYREPFNPAFLYKVVGAADYKDDDDKAAHHHHHHHHHH , report its IC50.
Result: 19
